Listing of recorded HSA, RLU by entry.
- subject-of-test: human serum albumin (human) (UniProt P02768)
- Sequence (P02768 25-609 limits assumed): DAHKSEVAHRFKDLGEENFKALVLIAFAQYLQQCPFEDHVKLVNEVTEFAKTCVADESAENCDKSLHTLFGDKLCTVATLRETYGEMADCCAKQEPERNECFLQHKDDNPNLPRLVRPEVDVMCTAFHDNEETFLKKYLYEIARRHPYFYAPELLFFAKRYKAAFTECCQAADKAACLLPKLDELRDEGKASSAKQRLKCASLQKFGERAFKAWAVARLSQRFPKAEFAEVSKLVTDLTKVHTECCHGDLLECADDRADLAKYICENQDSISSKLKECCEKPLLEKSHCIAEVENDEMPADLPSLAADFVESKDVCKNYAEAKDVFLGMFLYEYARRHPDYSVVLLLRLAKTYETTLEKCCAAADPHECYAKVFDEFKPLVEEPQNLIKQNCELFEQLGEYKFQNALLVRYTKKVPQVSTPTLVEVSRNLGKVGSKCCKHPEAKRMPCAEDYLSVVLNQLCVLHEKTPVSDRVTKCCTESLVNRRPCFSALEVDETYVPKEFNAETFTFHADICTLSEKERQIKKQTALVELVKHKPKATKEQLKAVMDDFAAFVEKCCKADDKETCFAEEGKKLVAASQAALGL
- protocol-details: primary ELISA of colonies, luminescence; negative control antigen

Consider the worked cases shown below.
- CD71-binding FN3 domain of SEQ ID NO: 100 (designed binder, not shown: small tags and cut ends) MLPAPKNLVVSRVTEDSARLSWTAPDAAFDSFYIAYAEPRPDGEAILLLVPGSERSYDLTGLKPGTEYSVLIHGVKGGLLSSPLVASFTT: 7750 RLU
- CD71-binding FN3 domain of SEQ ID NO: 109 (designed binder, not shown: small tags and cut ends) MLPAPKNLVVSRVTEDSARLSWTAPDAAFDSFFIGYLEPQPPGEAIILHVPGSERSYDLTGLKPGTEYNVTIQGVKGGFPSLPLNANFTT: 3250 RLU
- CD71-binding FN3 domain of SEQ ID NO: 103 (designed binder, not shown: small tags and cut ends) MLPAPKNLVVSRVTEDSARLSWTAPDAAFDSFYIAYAEPRPDGEAIILGVPGSERSYDLTGLKPGTEYSVLIHGVKGGLLSSPLSAYSTT: 18200 RLU

Now for a further binder.
What value of HSA, RLU has been reported for the following binder? CD71-binding FN3 domain of SEQ ID NO: 110 (designed binder, not shown: small tags and cut ends) MLPAPKNLVVSRVTEDSARLSWTAPDAAFDSFHIVYHEPRPSGEAIYLEVPGSERSYDLTGLKPGTEYEVGIVSVKGGDLSVPLRAHFTT
2500 RLU
